Reported phosphorylation enrichment by item:
biological target: FGFR1 (UniProt P11362); assay: phosphorylation enrichment, bacterial display (enrichment ratio); higher = better substrate or ligand; peptides without Tyr show the background;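 note: 11-residue human phosphosite peptides and single-mutation variants displayed on the E. coli surface, counted by deep sequencing, each peptide's frequency after selection divided by its frequency in the unselected input library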;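 note: frequency after pTyr selection over input frequency; kinase dosed for 20-30% of maximal phosphorylation in three min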
Sequence (P11362 whole entry, looked up): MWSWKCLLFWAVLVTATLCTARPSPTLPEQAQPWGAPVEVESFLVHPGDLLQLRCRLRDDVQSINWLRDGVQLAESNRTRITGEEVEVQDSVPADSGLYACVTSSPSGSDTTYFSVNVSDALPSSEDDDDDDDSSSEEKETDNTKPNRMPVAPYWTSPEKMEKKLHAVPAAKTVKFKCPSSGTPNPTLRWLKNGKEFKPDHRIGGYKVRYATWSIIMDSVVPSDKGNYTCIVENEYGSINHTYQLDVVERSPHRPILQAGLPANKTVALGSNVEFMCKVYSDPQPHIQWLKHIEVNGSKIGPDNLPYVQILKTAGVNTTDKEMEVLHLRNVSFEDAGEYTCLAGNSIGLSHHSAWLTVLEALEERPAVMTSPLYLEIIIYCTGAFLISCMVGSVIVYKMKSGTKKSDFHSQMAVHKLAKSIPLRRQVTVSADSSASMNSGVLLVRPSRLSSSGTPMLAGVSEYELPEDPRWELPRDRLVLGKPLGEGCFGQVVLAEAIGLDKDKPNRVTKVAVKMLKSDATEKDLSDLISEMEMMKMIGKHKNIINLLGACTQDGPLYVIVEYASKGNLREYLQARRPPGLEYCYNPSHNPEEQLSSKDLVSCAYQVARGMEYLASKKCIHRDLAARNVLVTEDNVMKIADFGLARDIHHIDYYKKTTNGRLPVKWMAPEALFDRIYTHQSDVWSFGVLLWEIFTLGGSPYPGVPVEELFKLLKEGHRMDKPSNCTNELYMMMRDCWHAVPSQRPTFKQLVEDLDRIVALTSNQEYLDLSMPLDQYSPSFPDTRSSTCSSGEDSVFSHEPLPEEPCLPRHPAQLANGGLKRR
readout-name: phosphorylation enrichment

{"ordered-residues": "CDTKLYTSAPN [DNTTIP2_Y427]", "study-target": "FGFR1 (UniProt P11362)", "readout-name": "phosphorylation enrichment", "meas-value": 0.595}
{"ordered-residues": "IVKAYYVHARA [AIPL1_Y268_R270H]", "study-target": "FGFR1 (UniProt P11362)", "readout-name": "phosphorylation enrichment", "meas-value": 0.538}
{"ordered-residues": "CSEEMYCLMLQ [RET_Y981_R982C]", "study-target": "FGFR1 (UniProt P11362)", "readout-name": "phosphorylation enrichment", "meas-value": 3.5}
{"ordered-residues": "FKDVTYLKEEK [UBE3A_Y127_T129K]", "study-target": "FGFR1 (UniProt P11362)", "readout-name": "phosphorylation enrichment", "meas-value": 0.481}
{"ordered-residues": "RIRRRYCQVLN [IQCF1_Y144]", "study-target": "FGFR1 (UniProt P11362)", "readout-name": "phosphorylation enrichment", "meas-value": 0.708}
{"ordered-residues": "KDIENYIQDGK [RAD50_Y964]", "study-target": "FGFR1 (UniProt P11362)", "readout-name": "phosphorylation enrichment", "meas-value": 0.543}
{"ordered-residues": "QTLTDYDIRFF [CSNK2A1_Y131_YF]", "study-target": "FGFR1 (UniProt P11362)", "readout-name": "phosphorylation enrichment", "meas-value": 0.569}
